Collected CC50 at 48 h values appear next to each entry.
# assay.info: cell viability by MTT in Huh7.5 cells electroporated with SGR-luc-NS2-5B(JFH-1)
# Type: cell-based
# condition.info: human, Huh7.5 cells electroporated with SGR-luc-NS2-5B(JFH-1); MTT, Huh7.5, 48 h.p.e., Fig. 2D; read-out: Cell viability CC50, across experimental repeats
observation.type: CC50 at 48 h

>>> assay_value("CCC[C@H](NC(=O)[C@@H]1[C@H]2CCC[C@H]2CN1C(=O)[C@@H](NC(=O)[C@@H](NC(=O)c1cnccn1)C1CCCCC1)C(C)(C)C)C(=O)C(=O)NC1CC1 [Telaprevir, reference compound]")
"> 31.6 µM"
>>> assay_value("CC1(C(=O)N2CCC3(CC2)c2ccccc2[C@@H](N)[C@@H]3O)CCCCC1")
"> 100 µM"

Hey, just so you know, these numbers are from paper PMC4678293.
